Measurement Target: SMARCA4 (Homo sapiens)
Sequence (P51532 whole entry): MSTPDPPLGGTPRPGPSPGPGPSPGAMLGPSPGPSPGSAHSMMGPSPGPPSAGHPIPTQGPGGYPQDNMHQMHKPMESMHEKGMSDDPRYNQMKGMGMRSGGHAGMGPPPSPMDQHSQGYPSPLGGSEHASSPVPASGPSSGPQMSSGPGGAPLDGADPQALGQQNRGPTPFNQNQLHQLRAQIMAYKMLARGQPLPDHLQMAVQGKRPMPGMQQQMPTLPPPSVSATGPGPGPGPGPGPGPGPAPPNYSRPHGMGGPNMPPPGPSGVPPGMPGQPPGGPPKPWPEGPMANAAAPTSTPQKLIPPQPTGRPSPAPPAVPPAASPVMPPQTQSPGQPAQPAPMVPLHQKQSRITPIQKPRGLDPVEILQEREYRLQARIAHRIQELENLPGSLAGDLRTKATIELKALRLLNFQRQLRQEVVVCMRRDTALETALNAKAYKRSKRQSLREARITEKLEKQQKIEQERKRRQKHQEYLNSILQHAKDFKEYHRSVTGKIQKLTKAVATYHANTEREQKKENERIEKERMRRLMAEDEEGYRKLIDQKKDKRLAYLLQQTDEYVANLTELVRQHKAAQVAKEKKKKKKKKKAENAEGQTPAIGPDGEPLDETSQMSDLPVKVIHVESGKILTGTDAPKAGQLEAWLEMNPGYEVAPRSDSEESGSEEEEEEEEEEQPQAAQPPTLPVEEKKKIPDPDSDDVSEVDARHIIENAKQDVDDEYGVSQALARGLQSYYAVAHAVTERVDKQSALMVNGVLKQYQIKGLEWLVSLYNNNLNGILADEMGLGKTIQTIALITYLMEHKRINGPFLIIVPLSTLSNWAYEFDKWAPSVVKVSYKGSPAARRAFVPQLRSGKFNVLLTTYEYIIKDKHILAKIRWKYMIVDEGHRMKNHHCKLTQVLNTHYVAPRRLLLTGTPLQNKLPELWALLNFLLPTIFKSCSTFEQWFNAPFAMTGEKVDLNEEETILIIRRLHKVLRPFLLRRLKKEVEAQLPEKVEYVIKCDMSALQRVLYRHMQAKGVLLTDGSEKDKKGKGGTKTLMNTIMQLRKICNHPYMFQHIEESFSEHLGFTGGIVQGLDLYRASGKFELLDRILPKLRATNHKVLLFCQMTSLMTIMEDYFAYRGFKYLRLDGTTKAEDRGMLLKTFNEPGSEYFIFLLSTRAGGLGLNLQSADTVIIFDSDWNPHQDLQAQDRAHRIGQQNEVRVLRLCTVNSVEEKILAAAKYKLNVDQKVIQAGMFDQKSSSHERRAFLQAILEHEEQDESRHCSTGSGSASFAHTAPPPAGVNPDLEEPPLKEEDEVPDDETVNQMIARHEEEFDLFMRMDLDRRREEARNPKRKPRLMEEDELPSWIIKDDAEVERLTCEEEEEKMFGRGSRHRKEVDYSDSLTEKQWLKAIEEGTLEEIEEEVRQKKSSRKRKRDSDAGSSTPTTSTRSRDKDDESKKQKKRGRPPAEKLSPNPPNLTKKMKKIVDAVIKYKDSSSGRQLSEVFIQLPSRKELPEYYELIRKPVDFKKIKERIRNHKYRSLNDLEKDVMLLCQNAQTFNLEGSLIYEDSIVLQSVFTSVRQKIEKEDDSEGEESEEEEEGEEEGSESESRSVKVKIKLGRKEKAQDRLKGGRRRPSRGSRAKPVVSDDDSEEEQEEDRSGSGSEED
Assay Comment: HiBiT assay for protein degradation, Hela SMARCA4-HiBiT cells (A series)
Format: cell-based
Design: fuse HiBiT to the carboxy terminus of SMARCA2 (Promega CS302365) or SMARCA4 (Promega CS3023225); host or cells: HeLa (CRISPR/Cas9 HiBiT knock-in)
Details: Hela SMARCA4-HiBiT cells, 24 hours treatment; read-out: SMARC A4 Hela HiBit Dmax(%)
Observable: Dmax

Compound: Cc1ncsc1-c1ccc([C@@H](C)NC(=O)[C@@H]2C[C@@H](O)CN2C(=O)C(c2cc(N3CCC(CN4CCC(c5ccc6c(c5)C5(CCCCC5)c5nc(=O)c7c(Br)cccc7n5-6)CC4)CC3)no2)C(C)C)cc1 (stereo partly shown)
Observable: Dmax
Value Measured: < 50%

Compound: Cc1ncsc1-c1ccc([C@H](C)NC(=O)[C@@H]2C[C@@H](O)CN2C(=O)[C@@H](n2cc([C@H]3CC[C@H](CN4CCC(c5ncc6c(n5)-n5c(nc(=O)c7c(Br)cccc75)C65CCCCC5)CC4)CC3)nn2)C(C)(C)C)cc1
Observable: Dmax
Value Measured: 50 to 69%

Compound: Cc1ncsc1-c1ccc([C@H](C)NC(=O)[C@@H]2C[C@@H](O)CN2C(=O)[C@@H](NC(=O)C23CCC(CN4CCC(c5ccc6c(c5)-n5c(nc(=O)c7c(Br)cccc75)C65CCCCC5)CC4)(CC2)CC3)C(C)(C)C)cc1
Observable: Dmax
Value Measured: < 50%

Compound: Cc1ncsc1-c1ccc([C@H](CN2CCOCC2)NC(=O)[C@@H]2C[C@@H](O)CN2C(=O)[C@@H](NC(=O)[C@H]2CC[C@H](CN3CCC(c4ccc5c(c4)C4(CCCCC4)c4nc(=O)c6c(Br)cccc6n4-5)CC3)CC2)C(C)(C)C)cc1
Observable: Dmax
Value Measured: 50 to 69%

* * *

Measurement Target: SMARCA2 (Homo sapiens)
Sequence (P51531 whole entry): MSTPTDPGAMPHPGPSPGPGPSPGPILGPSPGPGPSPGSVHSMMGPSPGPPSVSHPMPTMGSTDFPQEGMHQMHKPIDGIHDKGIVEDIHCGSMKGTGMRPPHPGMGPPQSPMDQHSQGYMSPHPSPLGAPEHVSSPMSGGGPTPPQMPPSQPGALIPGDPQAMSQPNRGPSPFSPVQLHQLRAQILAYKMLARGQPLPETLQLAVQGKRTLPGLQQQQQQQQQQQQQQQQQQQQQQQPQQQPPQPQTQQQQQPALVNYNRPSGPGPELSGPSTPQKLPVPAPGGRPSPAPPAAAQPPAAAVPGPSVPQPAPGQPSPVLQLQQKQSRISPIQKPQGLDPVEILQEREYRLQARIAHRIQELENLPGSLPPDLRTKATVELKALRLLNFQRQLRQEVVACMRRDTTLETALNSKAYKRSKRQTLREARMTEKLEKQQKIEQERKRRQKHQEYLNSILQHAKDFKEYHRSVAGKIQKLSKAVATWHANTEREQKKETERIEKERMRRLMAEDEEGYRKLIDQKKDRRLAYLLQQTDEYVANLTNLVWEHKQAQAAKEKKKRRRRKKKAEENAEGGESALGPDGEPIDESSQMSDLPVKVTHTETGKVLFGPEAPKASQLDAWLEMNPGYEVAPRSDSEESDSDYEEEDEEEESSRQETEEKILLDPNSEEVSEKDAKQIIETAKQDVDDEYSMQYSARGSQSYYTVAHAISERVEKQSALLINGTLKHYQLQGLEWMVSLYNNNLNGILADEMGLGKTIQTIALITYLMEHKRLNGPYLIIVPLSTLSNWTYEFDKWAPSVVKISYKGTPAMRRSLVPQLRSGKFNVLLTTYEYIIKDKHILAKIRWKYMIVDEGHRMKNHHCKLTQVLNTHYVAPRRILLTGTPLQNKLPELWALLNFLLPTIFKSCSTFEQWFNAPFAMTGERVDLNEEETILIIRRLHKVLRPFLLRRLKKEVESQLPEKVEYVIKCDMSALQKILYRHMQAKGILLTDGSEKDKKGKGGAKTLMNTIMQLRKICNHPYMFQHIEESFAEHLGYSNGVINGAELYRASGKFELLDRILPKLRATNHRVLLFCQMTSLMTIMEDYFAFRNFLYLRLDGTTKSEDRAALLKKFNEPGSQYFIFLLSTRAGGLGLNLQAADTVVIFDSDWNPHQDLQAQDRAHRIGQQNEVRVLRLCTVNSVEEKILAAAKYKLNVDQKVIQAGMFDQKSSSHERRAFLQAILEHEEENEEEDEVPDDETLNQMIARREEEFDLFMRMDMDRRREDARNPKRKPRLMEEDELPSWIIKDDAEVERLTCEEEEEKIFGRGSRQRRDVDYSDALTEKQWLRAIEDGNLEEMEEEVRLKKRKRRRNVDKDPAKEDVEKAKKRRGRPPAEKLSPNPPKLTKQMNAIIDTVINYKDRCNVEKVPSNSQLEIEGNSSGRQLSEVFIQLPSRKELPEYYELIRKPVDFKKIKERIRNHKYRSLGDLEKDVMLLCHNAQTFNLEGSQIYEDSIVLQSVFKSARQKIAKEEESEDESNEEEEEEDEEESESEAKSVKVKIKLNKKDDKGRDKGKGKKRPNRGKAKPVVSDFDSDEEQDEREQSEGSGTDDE
Assay Comment: HiBit assay in engineered HT1080 CRISPR knock-in cell, 6 hrs (B series), SMARCA2
Assay type: cell-based
Details: HT-1080, HT1080 CRISPR knock-in cells, 6 hrs incubation; read-out: SMARC A2 HT1080 HiBit Dmax (%)

Molecule: Cc1ncsc1-c1ccc([C@H](C)NC(=O)[C@@H]2C[C@@H](O)CN2C(=O)[C@@H](c2cc(OCCCn3cc(-c4ccc5c(c4)-n4c(nc(=O)c6c(Cl)cccc64)C5(C)C)cn3)no2)C(C)C)cc1
Dmax: 50 to 69%
--
Molecule: Cc1ncsc1-c1ccc([C@H](C)NC(=O)[C@@H]2C[C@@H](O)CN2C(=O)[C@H](C(C)C)n2cc(C3CCC(c4cccc5c4C(C)(C)c4nc(=O)c6c(Cl)cccc6n4-5)CC3)nn2)cc1 (stereo partly shown)
Dmax: > 90%
--
Molecule: Cc1ncsc1-c1ccc([C@H](C)NC(=O)[C@@H]2C[C@@H](O)CN2C(=O)[C@H](C(C)C)n2cc(C3CCC(CN4CCC(c5ccc6c(c5)C(C)(C)c5nc(=O)c7c(Cl)cccc7n5-6)CC4)CC3)nn2)cc1 (stereo partly shown)
Dmax: > 90%
--
Molecule: C[C@H](NC(=O)[C@@H]1C[C@@H](O)CN1C(=O)[C@@H](n1cc([C@H]2CC[C@H](CN3CCN(c4ccc5c(c4)-n4c(nc(=O)c6c(Cl)cccc64)C5(C)C)CC3)CC2)nn1)C(C)(C)C)c1ccc(-c2ccn[nH]2)cc1
Dmax: > 90%
